test target: T1, cell surface human mesothelin (MSLN) (human, UniProt Q13421 296-598)
T1 construct: whole, on cells; also called cell surface MSLN
T1 sequence (Q13421 other isoform, or with tags, fused parts or gaps limits assumed): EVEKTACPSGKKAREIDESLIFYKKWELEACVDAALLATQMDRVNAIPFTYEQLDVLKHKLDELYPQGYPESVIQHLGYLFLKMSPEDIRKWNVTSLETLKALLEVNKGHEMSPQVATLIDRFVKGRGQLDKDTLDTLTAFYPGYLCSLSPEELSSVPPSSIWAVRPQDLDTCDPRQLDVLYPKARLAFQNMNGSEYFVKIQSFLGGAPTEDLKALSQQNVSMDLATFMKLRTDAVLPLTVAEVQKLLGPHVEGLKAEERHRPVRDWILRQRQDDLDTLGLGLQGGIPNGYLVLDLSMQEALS
procedure details: flow cytometry, NCI-H226 cells
Overview of reported Emax (MFI) across a group of binders:
Report only the number, with the unit MFI understood.

Sample records with Emax (MFI):
| binder | Emax (MFI) |
| --- | --- |
| FS22-053-008-AA/FS28-256-023 mAb^2 (bispecific antibody, human IgG1, kappa, L234A L235A, V domains shown) VH: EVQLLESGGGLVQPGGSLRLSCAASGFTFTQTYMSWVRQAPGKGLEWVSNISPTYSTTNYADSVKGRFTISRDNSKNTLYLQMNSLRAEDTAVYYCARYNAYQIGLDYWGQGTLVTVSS VL: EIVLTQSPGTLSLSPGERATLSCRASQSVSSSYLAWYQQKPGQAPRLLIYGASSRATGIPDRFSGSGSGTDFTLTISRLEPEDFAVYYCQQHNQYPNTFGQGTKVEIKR | 856000 |
| FS22-053-008-AA/FS28-256-014 mAb^2 (bispecific antibody, human IgG1, kappa, L234A L235A, V domains shown) VH: EVQLLESGGGLVQPGGSLRLSCAASGFTFTDTYMSWVRQAPGKGLEWVSNISPTYSTTNYADSVKGRFTISRDNSKNTLYLQMNSLRAEDTAVYYCARYNAYAAGLDYWGQGTLVTVSS VL: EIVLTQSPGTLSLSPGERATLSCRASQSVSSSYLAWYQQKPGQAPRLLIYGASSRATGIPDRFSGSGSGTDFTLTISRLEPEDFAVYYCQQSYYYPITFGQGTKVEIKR | 771000 |

Kindly review the next binder as well.
*Q* Param item = FS22-053-008-AA/FS28-024 mAb^2 (bispecific antibody, human IgG1, kappa, L234A L235A, V domains shown, also called FS28-024 (in FS22-053-008-AA mAb^2 format); FS28-024 (in CD137 mAb2 format)) VH: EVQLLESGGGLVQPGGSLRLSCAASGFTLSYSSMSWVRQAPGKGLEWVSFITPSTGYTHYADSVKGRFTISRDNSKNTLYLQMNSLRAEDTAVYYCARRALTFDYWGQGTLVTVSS VL: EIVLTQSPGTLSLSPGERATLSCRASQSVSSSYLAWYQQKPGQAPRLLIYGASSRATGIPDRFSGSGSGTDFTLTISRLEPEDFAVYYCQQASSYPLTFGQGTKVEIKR ; retrieve measured Emax (MFI).
*A* 981000

Values compiled from patent US20220267421A1.
